Catalogue of IC50 values
# TARGET_OR_TEST_SYSTEM: human JAK2 (a.a. 828-1132) (Homo sapiens)
# Construct: JAK2 (a.a. 828-1132); His tag (N); made in house; host or cells: insect cells (baculovirus)
# Sequence (O60674 828-1132): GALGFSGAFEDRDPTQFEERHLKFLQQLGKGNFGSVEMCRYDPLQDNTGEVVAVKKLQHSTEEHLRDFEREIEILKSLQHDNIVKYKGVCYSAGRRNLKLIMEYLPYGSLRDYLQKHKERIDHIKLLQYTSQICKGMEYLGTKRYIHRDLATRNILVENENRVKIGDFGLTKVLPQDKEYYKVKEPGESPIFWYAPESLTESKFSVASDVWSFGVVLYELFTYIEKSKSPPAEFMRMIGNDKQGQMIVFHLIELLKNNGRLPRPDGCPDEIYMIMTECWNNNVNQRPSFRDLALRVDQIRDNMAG
# TEST_PROTOCOL: In vitro JAK kinase assay (HTRF, phosphorylation of a biotinylated peptide), JAK2
# Type: biochemical
# CONDITION_CONTEXT: method AA1 (30 μM ATP) or AA2 (1000 μM ATP), not stated per value
Counter-ions that a name gives are not always drawn.
MEASUREMENT_LABEL: IC50 (nM)

COMPOUND	TARGET_OR_TEST_SYSTEM	UNIT_LABEL	LIMIT_OPERATOR	EXPERIMENTAL_RESULT
CC(=O)N1CCN(CC(=O)Nc2ccc3cc2CCc2cncc(c2)Nc2ncc(Cl)c(n2)N3)CC1 [Example A127, tris(trifluoroacetate)]	human JAK2 (a.a. 828-1132) (Homo sapiens)	nM	=	64
CCNC(=O)N1CCC(CC(=O)Nc2ccc3cc2CCc2cccc(c2)Nc2ncc(Cl)c(n2)N3)CC1 [Example A57, trifluoroacetate]	human JAK2 (a.a. 828-1132) (Homo sapiens)	nM	=	7.3
Cc1ncoc1C(=O)N1CCC(CC(=O)Nc2ccc3cc2CCc2cncc(c2)Nc2ncc(Cl)c(n2)N3)CC1 [Example A132, bis(trifluoroacetate)]	human JAK2 (a.a. 828-1132) (Homo sapiens)	nM	=	18
CC(C)(C)NC(=O)N1CCC(CC(=O)Nc2ccc3cc2CCc2cccc(c2)Nc2ncc(Cl)c(n2)N3)CC1 [Example A85, trifluoroacetate]	human JAK2 (a.a. 828-1132) (Homo sapiens)	nM	=	13
Cc1ncsc1C(=O)N1CCC(CC(=O)Nc2ccc3cc2CCc2cncc(c2)Nc2ncc(Cl)c(n2)N3)CC1 [Example A216, bis(trifluoroacetate)]	human JAK2 (a.a. 828-1132) (Homo sapiens)	nM	>	200
Cc1noc(C)c1NC(=O)N1CCC(CC(=O)Nc2ccc3cc2CCc2cncc(c2)Nc2ncc(Cl)c(n2)N3)CC1 [Example A19, bis(trifluoroacetate)]	human JAK2 (a.a. 828-1132) (Homo sapiens)	nM	=	54
CC(C)(C)OC(=O)N1CCC(CC(=O)Nc2ccc3cc2CCc2cncc(c2)Nc2ncc(Cl)c(n2)N3)CC1 [Example A70, bis(trifluoroacetate)]	human JAK2 (a.a. 828-1132) (Homo sapiens)	nM	=	57
Cc1cccc(N2CCC(CC(=O)Nc3ccc4cc3CCc3cncc(c3)Nc3ncc(Cl)c(n3)N4)CC2)c1C#N [Example A236, tris(trifluoroacetate)]	human JAK2 (a.a. 828-1132) (Homo sapiens)	nM	=	150
Cn1cnc(S(=O)(=O)N2CCC(CC(=O)Nc3ccc4cc3CCc3cncc(c3)Nc3ncc(Cl)c(n3)N4)CC2)c1 [Example A229, bis(trifluoroacetate)]	human JAK2 (a.a. 828-1132) (Homo sapiens)	nM	=	75
O=C(Nc1ccc2cc1CCc1cccc(c1)Nc1ncc(Cl)c(n1)N2)C1CCN(C(=O)c2ccco2)CC1 [Example A32, trifluoroacetate]	human JAK2 (a.a. 828-1132) (Homo sapiens)	nM	=	29
O=C(CC1CCN(C(=O)c2cccnc2)CC1)Nc1ccc2cc1CCc1cccc(c1)Nc1ncc(Cl)c(n1)N2 [Example A184, bis(trifluoroacetate)]	human JAK2 (a.a. 828-1132) (Homo sapiens)	nM	=	79
CC(C)(C)NC(=O)N1CCC(CC(=O)Nc2ccc3cc2CCc2cncc(c2)Nc2ncc(Cl)c(n2)N3)CC1 [Example A113, bis(trifluoroacetate)]	human JAK2 (a.a. 828-1132) (Homo sapiens)	nM	=	54
